Give cytotoxicity for every item shown.
assay details: cytotoxicity in HPDE-C7 cells, cell-based, fluorescence, HTS (AID 430);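 further: cells exposed to compound for 48 hours before viability readout; 0% = vehicle and 100% = reference cytotoxic drug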
test conditions: HPDE-C7 pancreatic duct cells viability, at 10 µM, active compounds read high
Among all 63,000 compounds or so, about 1,100 (1.7%) were called active. Many of the other results were omitted from the sample, so actives are more common in it than they were. Potency and affinity values are given separately.

{"compound": "CC(Sc1nnc(C2CCCCC2)n1N)C(=O)NCc1ccc2c(c1)OCO2 (stereo unspecified)", "cytotoxicity": "0.2% (inactive)"}
{"compound": "OCCNc1nc(Nc2ccccc2)nc(Nc2ccccc2)n1", "cytotoxicity": "2.2% (inactive)"}
{"compound": "Cc1ccc(CC2(O)CC(C)N(C)CC2C)c(C)c1 (stereo unspecified)", "cytotoxicity": "0.1% (inactive)"}
{"compound": "CCCN(S(=O)(=O)c1ccc(OCC)cc1)S(=O)(=O)c1cccs1", "cytotoxicity": "-20.2% (inactive)"}
{"compound": "CNC(=O)c1ccc(N(Cc2ccccc2)S(C)(=O)=O)cc1", "cytotoxicity": "2.3% (inactive)"}

Query block: Please give measured cytotoxicity of the following entry: c1csc(-c2csc(-c3cccs3)n2)c1
Result block: -4.7% (inactive)

Hey, just so you know, these numbers are from PubChem BioAssay AID430.
